Tested on: P12-Ichikawa
Assay summary: cell viability relative to DMSO control; higher = less cytotoxic
Test settings: RPMI 5 mM glucose + 10% dialyzed FBS; 48 h; 1.71 µM
Hi there, I'd appreciate the recorded cell viability for every entry that follows.
Value expressed in %; do not type the unit.

Return reported cell viability; argument: `COc1cc2c(cc1-c1c(C)noc1C)ncc1[nH]c(=O)n([C@H](C)c3ccccn3)c12`
90.2

// repeat for `C\C1=C\C(=O)OC2=C1C=CC(=C2)O` and report
104

Another compound to look at: `Cc1ccc(NC(=O)c2ccc(CN3CCN(C)CC3)cc2)cc1Nc1nc(-c2cccnc2)cs1`
95.1

Can you handle `CC(=O)O[C@H]1C[C@@H]2CC[C@@H]3[C@H](CC[C@@]4(C)[C@H]3C[C@H]([N+]3(C)CCCCC3)[C@@H]4OC(C)=O)[C@@]2(C)C[C@@H]1[N+]1(C)CCCCC1` next?
117

Please answer likewise for `CN(c1ncccc1CNc1nc(Nc2ccc3c(c2)CC(=O)N3)ncc1C(F)(F)F)[S+](C)(=O)[O-]`
114

Repeat with `Cc1cn2c(-c3cn[nH]c3)cnc2c(Nc2ccc(C(=O)N3CCNCC3)cc2F)n1`
95.6

Please give the result for `O=NN(CCCl)C(=O)NC1CCCCC1` too.
110

Same thing, different compound: `[NH2][Pt]1([NH2])[O]CC(=O)[O]1`
89.6

Let us now turn to CCN(CC)CC#CCOC(=O)C(O)(c1ccccc1)C1CCCCC1 (stereo not given)
123

Next record, please: CCC(C)SSc1ncc[nH]1 (stereo not given)
97.6

----------
Test system: SEM cells
Assay summary: cell viability relative to DMSO control; higher = less cytotoxic
Test settings: RPMI 5 mM glucose + 10% FBS; 48 h; 0.00702 µM
Parameter measured: cell viability
Just the number plus its unit, please.

Which cell viability reading was recorded for the compound CNC1CCC(N(Cc2cccc(-c3ccncc3)c2)C(=O)c2sc3ccccc3c2Cl)CC1 (stereo not drawn) ?
100%

Next compound up: `CC/C(=C(/c1ccc(O)cc1)c1ccc(OCCNC)cc1)c1ccccc1`
108%

And then `O=C(OC)[C@]12CC[C@@]3(C)[C@]4(C)CC[C@H]5[C@@](C)(C)C(=O)C(=C[C@]5(C)C4=CC(=O)[C@@H]3[C@@H]2C[C@](C)(C)CC1)C#N` , what is it?
112%

Further, for `CN(C)c1ccc(O)c2c1C[C@H]1C[C@H]3[C@H](N(C)C)C(O)=C(C(N)=O)C(=O)[C@@]3(O)C(O)=C1C2=O` ?
93.8%

One more compound: `COC1=CC=CC2=C1C(=NC(=N2)C3=CC=CS3)NN4C(=O)\C=C(C)/C4=O`
93.5%

And what about the compound `CC(=O)Oc1ccccc1C(=O)O` ?
100%

Now give it for `C[C@]12CC[C@@H]3c4ccc(OC(=O)N(CCCl)CCCl)cc4CC[C@H]3[C@@H]1CC[C@@H]2OP(=O)([O-])[O-].[Na+].[Na+]` too.
120%

Quick one: `C[C@H](NC(=O)/C(C#N)=C/c1cccc(Br)n1)c1ccccc1`
102%

----------
Test system: SEM cells
Assay summary: cell viability relative to DMSO control; higher = less cytotoxic
Test settings: RPMI 5 mM glucose + 10% FBS; 48 h; 0.00234 µM
Parameter measured: cell viability (%)
State the answer as a number, implicitly in %.

Param readout= cell viability; system= SEM cells; entry= `Cc1nc(NC(=O)N2CCC[C@H]2C(N)=O)sc1-c1ccnc(C(C)(C)C(F)(F)F)c1` ; returns value.
111

Subsequent entry: `Cc1ccc(NC(=O)c2ccc(CN3CCN(C)CC3)cc2)cc1Nc1nc(-c2cccnc2)cs1`
99

Now try `O=C(Nc1ccccc1Br)N[C@@H]1CCN(c2ccc(C(F)(F)F)cn2)C1` .
94.6

Then `COC1=CC=CC=C1C2=CC=CC(=C2)C/3=C(O)/C4=CC(=C(Cl)C=C4NC3=O)C#N` ?
89.9

Similarly, COC[C@H]1OC(=O)C2=COC3=C2[C@@]1(C)\C4=C(C5CCC(=O)[C@@]5(C)C[C@H]4OC(C)=O)/C3=O (stereo partly drawn) ?
107

Next entry: `CCc1cc(Nc2nccc(-c3c(-c4ccc(OC)c(C(=O)Nc5c(F)cccc5F)c4)nc4ccccn34)n2)c(OC)cc1N1CCC(N2CCN([S+](C)(=O)[O-])CC2)CC1`
94.6

Subsequent entry: CN(C)CCOc1cc(-c2cn[nH]c2)ccc1NC(=O)C1COc2ccccc2O1 (stereo not drawn)
95

Follow-up item: `NC(=O)c1cnc(N[C@@H]2CCCC[C@@H]2N)nc1Nc1cccc(-n2nccn2)c1`
101

----------
System: NOMO1
Assay summary: cell viability relative to DMSO control; higher = less cytotoxic
Test settings: RPMI 5 mM glucose + 10% FBS; 48 h; 0.000781 µM
Provide the recorded cell viability for the entries that follow.
Write down the numeric answer in % and omit the unit.

# lookup: cell viability of `O=NN(CCCl)C(=O)NCCCl`
84.4

Could you do the same for `CC(C)n1nc(-c2cc3cc(O)ccc3[nH]2)c2c(N)ncnc21` , please?
96.2

Queued: `COC1=CC=CC=C1C2=CC=CC(=C2)C/3=C(O)/C4=CC(=C(Cl)C=C4NC3=O)C#N`
89.6

Also `CCc1cc(Nc2nccc(-c3c(-c4ccc(OC)c(C(=O)Nc5c(F)cccc5F)c4)nc4ccccn34)n2)c(OC)cc1N1CCC(N2CCN([S+](C)(=O)[O-])CC2)CC1` , if possible.
101

Thanks! And `ClC1=C(N\C2=N\CCN2)C3=NSN=C3C=C1` ?
108

Also O=C(NOCC(O)CO)c1cc(Br)c(F)c(F)c1Nc1ccc(I)cc1F (stereo not given) ?
69.1

Could you do the same for `OC[C@H]1O[C@@H](O[C@@H]2[C@@H](CO)O[C@](O)(CO)[C@H]2O)[C@H](O)[C@@H](O)[C@H]1O` , please?
91.1

Then COc1cccc2cc(-c3nc(C4CCC(C(=O)O)CC4)n4ncnc(N)c34)[nH]c12 (stereo not given) ?
109

Now this one: CC(C)NCC(O)COc1ccc(COCCOC(C)C)cc1 (stereo not given)
108

Please answer likewise for O=C([O-])C(O)Cc1ccc(O)c(O)c1 (stereo not given)
91.8

Proceed to `OC1=C(O)C2=C(\C=C/C(=O)O2)C=C1`
99.7

// same read-out, input: CC(C)C(C)/C=C/C(C)C1CCC2C3=CC=C4CC(O)CCC4(C)C3CCC21C (stereo not given)
86.5

Thanks! And `COc1nccc(-c2c(-c3ccc(F)cc3)ncn2C2CCNCC2)n1` ?
45.8

Another: `COc1c(C)cnc(Cn2cnc3c(Cl)nc(N)nc32)c1C`
117

For CNC1CCC(N(Cc2cccc(-c3ccncc3)c2)C(=O)c2sc3ccccc3c2Cl)CC1 (stereo not given) then?
90.8

`C[C@H]1[C@H](NC(=O)/C(=N/OC(C)(C)C(=O)O)c2csc(N)n2)C(=O)N1[S+](=O)([O-])O` ?
105

Same again, this time with `COc1ccc(C[C@@H](C)[C@@H](C)Cc2ccc(OC)c(OC)c2)cc1OC`
87.3

Another compound to look at: CCC(C)SSc1ncc[nH]1 (stereo not given)
86

Quick one: `C\C1=C\C(=O)OC2=C1C=CC(=C2)O`
116

`CO[C@H]1/C=C/O[C@@]2(C)Oc3c(C)c(O)c4c(O)c(c5c(nc6cc(C)ccn65)c4c3C2=O)NC(=O)/C(C)=C\C=C\[C@H](C)[C@H](O)[C@@H](C)[C@@H](O)[C@@H](C)[C@H](OC(C)=O)[C@@H]1C` ?
107

What about this compound? `CC(C)(C)c1cc(NC(=O)Nc2ccc(-c3cn4c(n3)sc3cc(OCCN5CCOCC5)ccc34)cc2)no1`
76.8

And then CCC1(C)CC(=O)NC1=O (stereo not given) , what is it?
85.5

Further, for `CC/C(=C(/c1ccc(O)cc1)c1ccc(OCCNC)cc1)c1ccccc1` ?
102

How about `CC1(C)Cc2c(-c3ccccc3)c(-c3ccc(Cl)cc3)c(CC(=O)O)n2C1` ?
102

Would you kindly repeat that for `C/C=C1\NC(=O)[C@H]2CSSCC/C=C\[C@H](CC(=O)N[C@H](C(C)C)C(=O)N2)OC(=O)[C@H](C(C)C)NC1=O` ?
99.6

Repeat for the following compound: `C[C@@H](NC1=CC=CC=C1C(O)=O)C/2=C/C(=C\N3C(=O)/C=C(\N=C23)N4CCOCC4)C`
79.1

Okay, and `CC(C)OC(=O)OCOP(=O)(CO[C@H](C)Cn1cnc2c(N)ncnc21)OCOC(=O)OC(C)C.O=C(O)C=CC(=O)O` ?
95.8

What do you have for `Cc1ccc(NC(=O)c2ccc(CN3CCN(C)CC3)cc2)cc1Nc1nc(-c2cccnc2)cs1` ?
95.9

Moving on to `C[C@H](NC(=O)/C(C#N)=C/c1cccc(Br)n1)c1ccccc1`
104

Would you kindly repeat that for `FC(F)(F)c1ccc(/C=C/c2nc(COc3ccc(CCCCn4ccnn4)cc3)co2)cc1` ?
125

Consider next the compound `CC1=C(/C=C/C(C)=C/C=C/C(C)=C/C=C/C=C(C)/C=C/C=C(C)/C=C/C2=C(C)CCCC2(C)C)C(C)(C)CCC1` in the same way.
119

Field entry: COc1cc2c(cc1OC)C1CC(=O)C(CC(C)C)CN1CC2 (stereo not given)
116

// same read-out, input: `CC1(C)O[C@@H]2C[C@H]3[C@@H]4CCC5=CC(=O)C=C[C@]5(C)[C@@]4(F)[C@@H](O)C[C@]3(C)[C@]2(C(=O)CO)O1`
98.3

# repeat for `Cl.Cl.Cl.O[C@@H](COc1cccc2ncccc12)CN1CCN([C@@H]2c3ccccc3[C@@H]3[C@H](c4ccccc42)C3(F)F)CC1`
79.7

Continue with `C=C(C)[C@@H]1CC[C@]2(C(=O)O)CC[C@]3(C)[C@H](CC[C@@H]4[C@@]5(C)CC[C@H](O)C(C)(C)[C@@H]5CC[C@]43C)[C@@H]12`
116
